A collection of compounds and their measured viability
- RUN DESCRIPTION: MRP1 drug-resistance reversers in H69AR cells – cell-based, doxorubicin co-treatment, pilot screen (AID 601)
- CONDITION DESCRIPTION: H69AR cells + 2 uM doxorubicin, CellTiter-Glo, 72 h; measured here: viability with 2 uM doxorubicin; at 10 µM; stronger effect = lower value
Express the reported value numerically, then name its unit.

• COc1ccc(C2CC(c3ccc(Cl)cc3Cl)n3nc(N)nc3N2)cc1 (stereo unspecified) = 91.1%
• CCN(CCNC(=O)C1CCN(S(=O)(=O)c2cccc3cccnc23)CC1)c1ccccc1 = 100%
• COc1cc(C(=O)N2c3ccccc3CC2C)cc(OC)c1OC (stereo unspecified) = 91.3%
• Cn1c(C(=O)NCCN2CCN(c3ccccc3F)CC2)cc2c(=O)n(C)c3ccccc3c21 = 72.5%
• CC(CCc1ccccc1)NC(=O)C1CCCN(c2nnc(-n3cccc3)s2)C1 (stereo unspecified) = 82%

Notebook: O=C1NC2(Nc3ccccc31)C(=O)Nc1ccccc12 (stereo unspecified) , viability read as 97.3%

The recorded viability for entry `CCCCNC(=O)Cn1c(=O)n(C)c2ccccc21` equals 91.2%

compound `CCC(CC)C(=O)NCCc1cc2ccc(C)cc2[nH]c1=O` , viability observed: 92.9%

Documented viability of `Cc1ccccc1Cn1cc(/C=N/n2cnnc2)c2ccccc21` : 82%

Item: `O=C1C/C(=C/NCc2ccccc2)C(=O)N1` | viability: 102%

Kindly note the recorded viability for Cc1nc2ccc(S(=O)(=O)NC(C(=O)NCc3cccs3)C(C)C)cc2s1 (stereo unspecified) , which is 92.6%
